Tested on: LoVo-Dox
Experiment: Inhibition of cells growth by colorimetric (SRB) assay, LoVo-Dox
Settings: SRB assay, 48 hours exposure
METRIC: TGI LOVO-DOX

COMPOUND	METRIC	RESULT_VALUE
CCOc1nccc(-c2c3cccnc3n3c(N)nccc23)n1	TGI LOVO-DOX	2.79E−06
COc1ccc2nc3c(cc2c1)c(-c1ccnc(SC)n1)c1ccnc(N)n13 [Compound 18b]	TGI LOVO-DOX	2.57E−05
Cl.Nc1nccc(-c2c3c(N)ccnc3n3c(N)nccc23)n1	TGI LOVO-DOX	1.86E−06
Cl.Nc1nccc2c(-c3ccncn3)c3cccnc3n12	TGI LOVO-DOX	1.79E−06
Cl.Nc1nccc(-c2c3cc4ccccc4nc3n3c(N)nccc23)n1	TGI LOVO-DOX	3.62E−06
COc1ccnc2c1c(-c1ccnc(N)n1)c1ccnc(N)n12.Cl	TGI LOVO-DOX	2.59E−06
COc1nccc(-c2c3cccnc3n3c(N)nccc23)n1	TGI LOVO-DOX	3.42E−07
C[S+]([O-])c1nccc(-c2c3c(Cl)ccnc3n3c(N)nccc23)n1 (centres unmarked)	TGI LOVO-DOX	1.21E−05
COc1nccc(-c2c3cccnc3n3c(N)nccc23)n1.Cl	TGI LOVO-DOX	3.04E−06
CSc1nccc(-c2c3cccnc3n3ccccc23)n1	TGI LOVO-DOX	1.02E−05
Cl.Nc1nccc(-c2c3cccnc3n3c(N)nccc23)n1	TGI LOVO-DOX	2.86E−07
COc1ccc2nc3c(cc2c1)c(-c1ccnc(N)n1)c1ccnc(N)n13 [Compound 19b]	TGI LOVO-DOX	2.10E−05
Nc1nccc2c(-c3cccs3)c3cccnc3n12	TGI LOVO-DOX	3.75E−05
CSc1nccc2c(C(C)C)c3cccnc3n12	TGI LOVO-DOX	3.89E−05
Nc1nccc2c(-c3ccncn3)c3c(O)ccnc3n12	TGI LOVO-DOX	1.30E−05
CS(=O)(=O)c1nccc(-c2c3c(Cl)ccnc3n3c(N)nccc23)n1	TGI LOVO-DOX	7.07E−06
CSc1nccc(-c2c3c(Cl)ccnc3n3c(N)nccc23)n1	TGI LOVO-DOX	5.98E−07
COc1ccnc2c1c(-c1ccnc(N)n1)c1ccnc(N)n12	TGI LOVO-DOX	2.41E−06
Nc1nccc2c(-c3ccnc(Oc4ccccc4)n3)c3cccnc3n12	TGI LOVO-DOX	1.86E−06
COc1nccc(-c2c3c(O)ccnc3n3c(N)nccc23)n1	TGI LOVO-DOX	3.24E−05
Nc1nccc2c(-c3ccnc(O)n3)c3cccnc3n12	TGI LOVO-DOX	2.01E−05
CC(C)c1c2cccnc2n2c(N)nccc12	TGI LOVO-DOX	4.42E−05
Nc1nccc(-c2c3c(N)ccnc3n3c(N)nccc23)n1	TGI LOVO-DOX	1.27E−06
Nc1nccc2c(-c3ccncn3)c3c(OCc4ccccc4)ccnc3n12	TGI LOVO-DOX	1.42E−05
Nc1nccc2c(-c3cccc([N+](=O)[O-])c3)c3cccnc3n12	TGI LOVO-DOX	3.28E−05
CCOc1nccc(-c2c3cccnc3n3c(N)nccc23)n1.Cl	TGI LOVO-DOX	2.72E−06
Cc1ccc2c(-c3ccnc(N)n3)c3ccnc(N)n3c2n1.Cl	TGI LOVO-DOX	3.27E−06
Nc1nccc(-c2c3c(Cl)ccnc3n3c(N)nccc23)n1	TGI LOVO-DOX	1.18E−05
Cl.Nc1nccc2c(-c3ccncn3)c3c(O)ccnc3n12	TGI LOVO-DOX	1.59E−05
Nc1nccc(-c2c3c(F)ccnc3n3c(N)nccc23)n1	TGI LOVO-DOX	5.76E−06
Nc1nccc(-c2c3cccnc3n3ccccc23)n1	TGI LOVO-DOX	1.66E−05
Nc1nccc(-c2c3cc(Cl)cnc3n3c(N)nccc23)n1	TGI LOVO-DOX	7.86E−06

====

System: HT-29
Assay: Inhibition of cells growth by colorimetric (SRB) assay, HT-29
Conditions: Homo sapiens, HT-29, 48 h, read-out: HT-29 GI50, SRB assay, 48 hours exposure
Overview of recorded GI50 for various compounds

COMPOUND	UNITS	QUAL	GI50
CSc1nccc2c(-c3ccccc3)c3cccnc3n12	µM	≥	34.3
Nc1nccc2c(-c3ccccc3)c3cccnc3n12	µM	≥	38.4
COc1cccc(-c2c3cccnc3n3c(SC)nccc23)c1	µM	=	31.1
CSc1nccc(-c2c3cc4ccccc4nc3n3c(N)nccc23)n1 [Compound 18a]	µM	=	4.41
Nc1nccc2c(-c3ccncn3)c3cccnc3n12	µM	=	0.0381
Cl.Nc1nccc(-c2c3c(Cl)ccnc3n3c(N)nccc23)n1	µM	=	1.37
CSc1nccc(-c2c3c(N)ccnc3n3c(N)nccc23)n1.Cl	µM	=	0.176
CSc1nccc(-c2c3c(Cl)ccnc3n3c(N)nccc23)n1.Cl	µM	=	0.701
CSc1nccc(-c2c3cccnc3n3c(N)nccc23)n1.Cl	µM	=	1.14
Nc1nccc(-c2c3cccnc3n3c(N)nccc23)n1 [Deoxyvariolin 4, deoxyvariolin B, reference compound]	µM	=	0.117
CSc1nccc2c(-c3cccc([N+](=O)[O-])c3)c3cccnc3n12	µM	=	29.7

====

Tested on: DU-145
Experiment: Inhibition of cells growth by colorimetric (SRB) assay, DU-145
Conditions: Homo sapiens, DU-145, 48 h, read-out: DU-145 GI50, SRB assay, 48 hours exposure

COMPOUND	GI50 [µM]
CSc1nccc(-c2c3cccnc3n3c(N(C(C)=O)C(C)=O)nccc23)n1	4.48
CSc1nccc(-c2c3cc4ccccc4nc3n3c(N)nccc23)n1 [Compound 18a]	4.27
CSc1nccc(-c2c3c(N)ccnc3n3c(N)nccc23)n1.Cl	0.0646
CS(=O)(=O)c1nccc(-c2c3cccnc3n3c(N)nccc23)n1	29.4
Cl.Nc1nccc(-c2c3c(O)ccnc3n3c(N)nccc23)n1	0.36

====

Test system: LNCaP
Test: Inhibition of cells growth by colorimetric (SRB) assay, LNCaP
Conditions: Homo sapiens, LNCaP, 48 h, read-out: GI50 LN-caP, SRB assay, 48 hours exposure
Overview of recorded log10 of GI50 for various compounds
METRIC: log10 of GI50 (log10 of the value in µM)

COMPOUND	TARGET_SYSTEM	RESULT_VALUE
COc1nccc(-c2c3c(N)ccnc3n3c(N)nccc23)n1	LNCaP	-0.38
COc1ccnc2c1c(-c1ccnc(N)n1)c1ccnc(N)n12	LNCaP	-0.20
CC(C)c1c2cccnc2n2c(N)nccc12	LNCaP	1.10
COc1ccc2nc3c(cc2c1)c(-c1ccnc(SC)n1)c1ccnc(N)n13 [Compound 18b]	LNCaP	1.22
CSc1nccc2c(C(C)C)c3cccnc3n12	LNCaP	0.94
COc1ccc(CNc2ccnc3c2c(-c2ccnc(OC)n2)c2ccnc(NCc4ccc(OC)cc4)n23)cc1	LNCaP	1.24
CCOc1nccc(-c2c3cccnc3n3c(N)nccc23)n1	LNCaP	-0.21

====

Tested on: PANC-1
Assay: Inhibition of cells growth by colorimetric (SRB) assay, PANC-1
Conditions: read-out: LC50 PANC-1; SRB assay, 48 hours exposure
Overview of recorded CC50 for various compounds

ENTRY_SMILES	TARGET_SYSTEM	CC50
Cc1ccc2c(-c3ccnc(N)n3)c3ccnc(N)n3c2n1	PANC-1	≥ 34.3 µM
CCOc1nccc(-c2c3cccnc3n3c(N)nccc23)n1	PANC-1	≥ 32.6 µM
Cl.Nc1nccc2c(-c3ccncn3)c3c(O)ccnc3n12	PANC-1	≥ 33.9 µM

====

Test system: HT-29
Assay: Inhibition of cells growth by colorimetric (SRB) assay, HT-29
Conditions: Homo sapiens, HT-29, 48 h, read-out: LC50 HT-29, SRB assay, 48 hours exposure

COMPOUND	CC50
COc1nccc(-c2c3cccnc3n3c(N)nccc23)n1.Cl [Compound 81]	≥ 30.4 µM
CS(=O)(=O)c1nccc(-c2c3cccnc3n3c(N)nccc23)n1 [Compound 73]	≥ 147 µM
CSc1nccc(-c2c3cccnc3n3ccccc23)n1 [Compound 55]	≥ 34.2 µM
Nc1nccc(-c2c3c(F)ccnc3n3c(N)nccc23)n1 [Compound 115]	≥ 33.9 µM
CSc1nccc2c(-c3cccs3)c3cccnc3n12 [Compound 60]	≥ 33.6 µM

Hey, just so you know, these numbers are from patent US7772241B2.
